B1: library; a variant is named by its letters at N, in order (parent)
chain: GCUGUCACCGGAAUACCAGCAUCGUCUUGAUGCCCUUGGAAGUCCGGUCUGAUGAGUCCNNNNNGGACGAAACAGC

Variants of: B1
TEST SUMMARY: normalized RNA/DNA level with ligand (relative to sTRSVctl = 100) (log10 (% of sTRSVctl)); higher = less ribozyme self-cleavage, higher mRNA level
SETTINGS: ligand concentration (+) RNA-Seq: 5 mM, HEK293T, reporter: mCherry (pCS4076), ligand present: yes
OUTCOME MEASURE: normalized RNA/DNA level with ligand (log10)

Here is how some variants turned out for normalized RNA/DNA level with ligand (log10).
[
  {
    "MUTANT": "GAAAA",
    "RESULT": 1.96
  },
  {
    "MUTANT": "CAGGU",
    "RESULT": 2
  },
  {
    "MUTANT": "CACCA",
    "RESULT": 1.97
  }
]

Would you kindly share the measured normalized RNA/DNA level with ligand (log10) for AUACU ? 2.02

Input ACAGA 1.96

Next variant up: UCUUU 2.02

Next record, please: CCAUA 1.95
